All values here come from patent US7951829B2.

tgt: hVR1 (Homo sapiens)
method_summary: Human VR1 (hVR1) Functional Assay (FLIPR intracellular calcium, capsaicin challenge)
experimental_conditions: capsaicin 0.030 μM; HEK293 cells expressing hVR1
experimental_endpoint: IC50 (nM)

Answered examples (4):
{"compound": "NS(=O)(=O)c1ccccc1-c1ccc2[nH]c(CCc3ccccc3Cl)nc2c1 [Cpd 402]", "unit_string": "nM", "quantitative_readout": 38}
{"compound": "COC(=O)Nc1ccccc1-c1ccc2[nH]c(/C=C/c3ccc(C(F)(F)F)cc3)nc2c1 [Cpd 462]", "unit_string": "nM", "quantitative_readout": 97}
{"compound": "CNS(=O)(=O)c1ccccc1-c1ccc2[nH]c(/C=C/c3ccc(F)c(Br)c3)nc2c1 [Cpd 317]", "unit_string": "nM", "quantitative_readout": 11}
{"compound": "NS(=O)(=O)c1ccccc1-c1ccc2[nH]c(/C=C/c3cc(F)c(F)cc3F)nc2c1 [Cpd 371]", "unit_string": "nM", "quantitative_readout": 18}

a = CNS(=O)(=O)c1ccccc1-c1ccc2[nH]c(/C=C/c3c(F)cccc3F)nc2c1 [Cpd 327]
b = NS(=O)(=O)c1ccccc1-c1ccc2[nH]c(CCc3cc(C(F)(F)F)cc(C(F)(F)F)c3)nc2c1 [Cpd 387]
c = CNS(=O)(=O)c1ccccc1-c1ccc2[nH]c(/C=C/c3ccc(F)cc3C(F)(F)F)nc2c1 [Cpd 330]
d = NS(=O)(=O)c1ccccc1-c1ccc2[nH]c(CCc3cc(F)ccc3F)nc2c1 [Cpd 395]
Exercise: Highest IC50 first, then in falling order down to the smallest. Write out the labels following the order that was asked for.
Key: a, c, b, d

---

tgt: hVR1 (Homo sapiens)
Construct: expressed in transfected cells; host or cells: HEK293
method_summary: Human VR1 (hVR1) Functional Assay (FLIPR intracellular calcium, capsaicin challenge)
Format: cell-based
experimental_conditions: test concentration 1 μM; capsaicin 0.030 μM; HEK293 cells expressing hVR1
experimental_endpoint: inhibition at 1 µM (%)

Solved cases (5 shown):
{"compound": "NS(=O)(=O)c1ccccc1-c1ccc2[nH]c(CCc3cc(F)cc(C(F)(F)F)c3)nc2c1", "unit_string": "%", "inhibition at 1 µM": 95}
{"compound": "CNS(=O)(=O)c1ccccc1-c1ccc2[nH]c(/C=C/c3cccc(Cl)c3F)nc2c1", "unit_string": "%", "inhibition at 1 µM": 100}
{"compound": "OCc1ccccc1-c1ccc2[nH]c(/C=C/c3ccc(SC(F)(F)F)cc3)nc2c1", "unit_string": "%", "inhibition at 1 µM": 100}
{"compound": "NS(=O)(=O)c1ccccc1-c1ccc2[nH]c(CCc3ccc(F)cc3)nc2c1", "unit_string": "%", "inhibition at 1 µM": 93}
{"compound": "NS(=O)(=O)c1ccccc1-c1ccc2[nH]c(/C=C/c3ccc(C(F)(F)F)cc3)nc2c1", "unit_string": "%", "inhibition at 1 µM": 100}

1 = CC(=O)c1ccccc1-c1cc2nc(/C=C/c3ccc(C(F)(F)F)cc3)[nH]c2cc1F
2 = CC(C)(C)c1ccc(/C=C/c2nc3cc(-c4ccc(C(N)=O)cc4)ccc3[nH]2)cc1
3 = CC(C)(O)c1ccccc1-c1ccc2[nH]c(C3CC3c3cccc(C(F)(F)F)c3)nc2c1 (centres unmarked)
Exercise: Could you please sort these 3 entries by inhibition at 1 µM from high to low? Rank the items, then write their labels in that order.
Key: 1, 2, 3

---

tgt: hVR1 (Homo sapiens)
method_summary: Human VR1 (hVR1) Functional Assay (FLIPR intracellular calcium, capsaicin challenge)
experimental_conditions: capsaicin 0.030 μM; HEK293 cells expressing hVR1
experimental_endpoint: IC50 (nM)

Check out these entries, answers already filled in.
{"compound": "NS(=O)(=O)c1ccccc1-c1ccc2[nH]c(CCc3ccc(S(=O)(=O)C(F)(F)F)cc3)nc2c1 [Cpd 131]", "tgt": "hVR1 (Homo sapiens)", "IC50, nM": 31}
{"compound": "CNS(=O)(=O)c1ccccc1-c1ccc2[nH]c(/C=C/c3cccc(Cl)c3F)nc2c1 [Cpd 335]", "tgt": "hVR1 (Homo sapiens)", "IC50, nM": 47}
{"compound": "Cc1ccc(/C=C/c2nc3cc(-c4ccccc4S(N)(=O)=O)ccc3[nH]2)cc1 [Cpd 430]", "tgt": "hVR1 (Homo sapiens)", "IC50, nM": 9}
{"compound": "CNS(=O)(=O)c1ccccc1-c1ccc2[nH]c(/C=C/c3ccc(SC(F)(F)F)cc3)nc2c1 [Cpd 341]", "tgt": "hVR1 (Homo sapiens)", "IC50, nM": 6}
{"compound": "NS(=O)(=O)c1ccccc1-c1ccc2[nH]c(/C=C/c3ccc(C(F)(F)F)c(F)c3)nc2c1 [Cpd 423]", "tgt": "hVR1 (Homo sapiens)", "IC50, nM": 11}
{"compound": "NS(=O)(=O)c1ccccc1-c1ccc2[nH]c(CCc3ccc(F)c(F)c3)nc2c1 [Cpd 393]", "tgt": "hVR1 (Homo sapiens)", "IC50, nM": 10}

I = NS(=O)(=O)c1ccccc1-c1ccc2[nH]c(/C=C/c3cccc(F)c3F)nc2c1 [Cpd 359]
II = O=S(=O)(c1ccc(/C=C/c2nc3cc(-c4ccccc4O)ccc3[nH]2)cc1)C(F)(F)F [Cpd 41]
Exercise: Of I versus II , which is the one with smaller reported IC50? Identify your pick by its label.
Key: I
(I: 24 nM, II: 280 nM)

---

tgt: hVR1 (Homo sapiens)
Construct: expressed in transfected cells; host or cells: HEK293
method_summary: Human VR1 (hVR1) Functional Assay (FLIPR intracellular calcium, capsaicin challenge)
Type: cell-based
experimental_conditions: test concentration 1 μM; capsaicin 0.030 μM; HEK293 cells expressing hVR1
experimental_endpoint: inhibition at 1 µM (%)

{"compound": "CNS(=O)(=O)c1ccccc1-c1ccc2[nH]c(/C=C/c3ccc(Cl)cc3Cl)nc2c1 [Cpd 337]", "unit_string": "%", "inhibition at 1 µM": 96}
{"compound": "CNS(=O)(=O)c1ccccc1-c1ccc2[nH]c(/C=C/c3cc(C(F)(F)F)ccc3C(F)(F)F)nc2c1 [Cpd 334]", "unit_string": "%", "inhibition at 1 µM": 94}
{"compound": "NC(=O)c1ccccc1-c1ccc2[nH]c(/C=C/c3ccc(S(=O)(=O)C(F)(F)F)cc3)nc2c1 [Cpd 44]", "unit_string": "%", "inhibition at 1 µM": 95}

A = NS(=O)(=O)c1ccccc1-c1ccc2[nH]c(/C=C/c3ccc(F)cc3)nc2c1 [Cpd 434]
B = Cc1cccc(-c2ccc3[nH]c(CCCc4ccc(C(C)(C)C)cc4)nc3c2)c1 [Cpd 30]
Exercise: Task for the reader: decide whether A or B has the larger inhibition at 1 µM. When you have decided, please share the label of that item.
Key: A
(A: 98%, B: 10%)

A = Cn1c(/C=C/c2ccc(C(F)(F)F)cc2)nc2cc(-c3ccccc3NS(C)(=O)=O)ccc21 [Cpd 477]
B = CCOc1ccc(/C=C/c2nc3cc(-c4ccccc4NS(C)(=O)=O)ccc3[nH]2)cc1 [Cpd 414]
Exercise: Identify the item whose inhibition at 1 µM is the smaller number: A or B Reply with the label of the item you choose.
Key: A
(A: 44%, B: 98%)

---

tgt: hVR1 (Homo sapiens, UniProt Q8NER1)
Construct: expressed in transfected cells; host or cells: HEK293
Sequence (Q8NER1 whole entry): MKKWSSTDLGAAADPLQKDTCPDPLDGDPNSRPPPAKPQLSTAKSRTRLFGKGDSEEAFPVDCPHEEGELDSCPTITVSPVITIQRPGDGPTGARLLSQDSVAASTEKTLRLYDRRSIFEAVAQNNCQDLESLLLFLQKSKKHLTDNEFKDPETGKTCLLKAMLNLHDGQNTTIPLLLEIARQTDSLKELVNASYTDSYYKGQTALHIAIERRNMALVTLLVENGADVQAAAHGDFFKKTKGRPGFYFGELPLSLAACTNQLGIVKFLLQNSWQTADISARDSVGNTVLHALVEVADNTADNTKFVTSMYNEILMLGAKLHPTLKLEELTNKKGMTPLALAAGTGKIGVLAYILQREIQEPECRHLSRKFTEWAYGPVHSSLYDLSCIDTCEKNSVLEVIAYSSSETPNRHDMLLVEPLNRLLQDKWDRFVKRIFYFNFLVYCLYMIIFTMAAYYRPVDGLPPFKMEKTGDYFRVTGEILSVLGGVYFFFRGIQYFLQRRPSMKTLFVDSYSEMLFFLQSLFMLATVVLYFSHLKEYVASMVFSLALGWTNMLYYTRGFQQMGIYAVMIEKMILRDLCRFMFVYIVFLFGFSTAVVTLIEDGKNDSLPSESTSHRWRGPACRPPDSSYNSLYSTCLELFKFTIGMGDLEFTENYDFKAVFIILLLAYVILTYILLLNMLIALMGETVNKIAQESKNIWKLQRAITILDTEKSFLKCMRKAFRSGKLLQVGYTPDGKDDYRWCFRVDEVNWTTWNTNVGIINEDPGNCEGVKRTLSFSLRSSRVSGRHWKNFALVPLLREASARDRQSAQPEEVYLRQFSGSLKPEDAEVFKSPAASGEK
method_summary: Human VR1 (hVR1) Functional Assay (FLIPR intracellular calcium, capsaicin challenge)
Format: cell-based
experimental_conditions: test concentration 1 μM; capsaicin 0.030 μM; HEK293 cells expressing hVR1
experimental_endpoint: inhibition at 1 µM (%)

1 = NS(=O)(=O)c1ccc(C(F)(F)F)cc1-c1ccc2[nH]c(CCc3ccc(C(F)(F)F)cc3)nc2c1 [Cpd 445]
2 = FC(F)(F)c1ccc(/C=C/c2nc3cc(-c4ccccc4C(F)(F)F)ccc3[nH]2)cc1 [Cpd 487]
Exercise: Of 1 and 2 , whose reported inhibition at 1 µM is the larger number? Indicate your choice by writing its label.
Key: 1
(1: 96%, 2: 20%)

---

tgt: hVR1 (Homo sapiens)
Construct: expressed in transfected cells; host or cells: HEK293
method_summary: Human VR1 (hVR1) Functional Assay (FLIPR intracellular calcium, capsaicin challenge)
Format: cell-based
experimental_conditions: test concentration 1 μM; capsaicin 0.030 μM; HEK293 cells expressing hVR1
experimental_endpoint: inhibition at 1 µM (%)

{"compound": "CC(C)c1ccc(/C=C/c2nc3cc(-c4ccccc4S(N)(=O)=O)ccc3[nH]2)cc1 [Cpd 429]", "unit_string": "%", "quantitative_readout": 98}

P = Cc1ccc(/C=C/c2nc3cc(-c4ccccc4NS(C)(=O)=O)ccc3[nH]2)cc1 [Cpd 412]
Q = CS(=O)(=O)Nc1ccccc1-c1ccc2[nH]c(/C=C/c3cccc(C(F)(F)F)c3)nc2c1 [Cpd 113]
Exercise: Of P and Q , which carries the smaller reported inhibition at 1 µM figure? Your choice should be expressed through its label.
Key: Q

P = NS(=O)(=O)c1ccccc1-c1ccc2[nH]c(/C=C/c3cc(C(F)(F)F)cc(C(F)(F)F)c3)nc2c1 [Cpd 373]
Q = CC(=O)Nc1ccccc1-c1ccc2[nH]c(/C=C/c3ccc(F)c(F)c3)nc2c1 [Cpd 24]
Exercise: # returns the entry with the larger inhibition at 1 µM; inputs P and Q Identify your pick by its label.
Key: P
(P: 99%, Q: 8%)
